Examples of compounds with documented EC50 follow.
System: PKC mediated IL-2 production
Test: IL-2 ELISA, human primary T cell, anti CD3+CD28+
Assay type: cell-based
Details: Homo sapiens, T-cell, 24 h, human primary T cells stimulated with αCD3 and αCD28, 24 hours

[
  {
    "compound": "CC1(C)C[C@H](Nc2nc(Nc3cccc(-n4nn[nH]c4=O)c3)ncc2F)C[C@@H]2CCCN21 [Compound 260]",
    "EC50": "> 10 µM"
  },
  {
    "compound": "Cn1nnn(-c2cc(Nc3ncc(C#N)c(N[C@@H]4C[C@@H]5CCCN5C(C)(C)C4)n3)c(F)cc2C2CC2)c1=O (racemic) [Compound 66]",
    "EC50": "< 0.1 µM"
  }
]

For the next question, use this compound.
Notebook: CC1(C)C[C@H](Nc2nc(Nc3ccc(O[C@@H]4CCNC[C@H]4F)c(C(F)(F)F)c3)ncc2F)C[C@@H]2CCCN21 [Compound 119] , EC50 read as < 0.1 µM

====

Tested on: PKC mediated IL-2 production
Assay: IL-2 ELISA, human primary T cell, anti CD3+CD28+
Assay type: cell-based
Conditions: Homo sapiens, T-cell, 24 h, human primary T cells stimulated with αCD3 and αCD28, 24 hours
recorded.endpoint: EC50

Consider the worked cases shown below.
[
  {
    "compound": "CC1(C)C[C@H](Nc2nc(Nc3ccc(OCCO)c(-n4nnnc4C4CC4)c3)ncc2F)C[C@@H]2CCCN21 [Compound 129]",
    "measured.target": "PKC mediated IL-2 production",
    "recorded.endpoint": "EC50",
    "observed.value": "< 100 nM"
  },
  {
    "compound": "Cn1nnn(-c2cc(Nc3ncc(F)c(N[C@@H]4C[C@@H]5CCCN5C(C)(C)C4)n3)c(F)cc2OCCN2CCOCC2)c1=O [Compound 195]",
    "measured.target": "PKC mediated IL-2 production",
    "recorded.endpoint": "EC50",
    "observed.value": "500 to 1000 nM"
  }
]

Summary: Cn1nnn(-c2cc(Nc3ncc(F)c(N[C@@H]4C[C@@H]5CCCN5C(C)(C)C4)n3)c(F)cc2OC2CCOCC2)c1=O [Compound 114] , PKC mediated IL-2 production, EC50 = 500 to 1000 nM

Summary: CC1(C)C[C@H](Nc2nc(Nc3ccc(OCCCO)c(C#N)c3)ncc2F)C[C@@H]2CCCN21 [Compound 213] , PKC mediated IL-2 production, EC50 = 100 to 500 nM

Summary: Cn1nnn(-c2cc(Nc3ncc(F)c(N[C@H]4C[C@@H]5CC(F)(F)CN5C(C)(C)C4)n3)c(F)cc2C2CC2)c1=O [Compound 42] , PKC mediated IL-2 production, EC50 = 1000 to 10000 nM

Summary: Cc1nnnn1-c1cc(Nc2ncc(Cl)c(N[C@@H]3C[C@@H]4CCCN4C(C)(C)C3)n2)ccc1F [Compound 149] , PKC mediated IL-2 production, EC50 = < 100 nM

Summary: CC(O)COc1ccc(Nc2ncc(F)c(N[C@@H]3C[C@@H]4CCCN4C(C)(C)C3)n2)cc1-n1cnnn1 (some centres unmarked) [Compound 206] , PKC mediated IL-2 production, EC50 = < 100 nM

Summary: Cn1nnn(-c2cc(Nc3ncc(Cl)c(N[C@@H]4C[C@@H]5CCCN5C(C)(C)C4)n3)c(F)cc2C2CC2)c1=O [Compound 148] , PKC mediated IL-2 production, EC50 = < 100 nM

Summary: [2H]C1(Oc2ccc(Nc3ncc(F)c(N[C@H]4CCN5[C@@H](CCC5(C)C)C4)n3)cc2Cl)CC(O)C1 (some centres unmarked) [Compound 313] , PKC mediated IL-2 production, EC50 = 100 to 500 nM

Summary: Cc1ccc(Nc2ncc(F)c(N[C@@H]3C[C@@H]4CCCN4C(C)(C)C3)n2)cc1-n1nn[nH]c1=O [Compound 272] , PKC mediated IL-2 production, EC50 = > 10000 nM

Summary: COc1cc(Nc2ncc(Cl)c(N[C@@H]3C[C@@H]4CCCN4C(C)(C)C3)n2)cc(OC)c1 [Compound 162] , PKC mediated IL-2 production, EC50 = 100 to 500 nM

Summary: Cc1ccc(Nc2ncc(F)c(N[C@H]3C[C@@H]4CC(F)(F)CN4C(C)(C)C3)n2)cc1C#N [Compound 44] , PKC mediated IL-2 production, EC50 = 1000 to 10000 nM

Summary: CC1(C)C[C@H](Nc2nc(Nc3ccc(OCCO)c(Cl)c3)ncc2F)C[C@@H]2CCCN21 [Compound 133] , PKC mediated IL-2 production, EC50 = 100 to 500 nM

Summary: CC1(C)C[C@H](Nc2nc(Nc3ccc(O[C@@H]4CCN(C5COC5)C[C@H]4F)c(C(F)(F)F)c3)ncc2F)C[C@@H]2CCCN21 [Compound 122] , PKC mediated IL-2 production, EC50 = 100 to 500 nM
